Recorded values, source paper PMC6696338.

assay-method-text: Pharmacokinetic study of MMAF in rat (IV and PO), plasma by LC-TOF-MS/MS
Format: in vivo
condition-info: Sprague-Dawley, plasma; male SD rat, IV 5 mg/kg, non-compartmental analysis; read-out: Clearance (CL)
Non-standard residues stand in square brackets, D forms with d. Residues, ends and D or L forms follow the SMILES beside them. Dolaproine = CO[C@@H]([C@@H]1CCCN1)[C@@H](C)C(=O)O; Dil = CC[C@H](C)[C@H](NC)[C@@H](CC(=O)O)OC; NMeV = CN[C@H](C(=O)O)C(C)C
endpoint-name: clearance (mL/min/kg)
Provide the reading as a plain figure in mL/min/kg.

The recorded clearance for CC[C@H](C)[C@@H]([C@@H](CC(=O)N1CCC[C@H]1[C@H](OC)[C@@H](C)C(=O)N[C@@H](Cc1ccccc1)C(=O)O)OC)N(C)C(=O)[C@@H](NC(=O)[C@@H](NC)C(C)C)C(C)C [MMAF, monomethyl auristatin F] (H-[NMeV]V[Dil][Dolaproine]F-OH) is 77.3
